procedure-details: xn = mol fraction of the nth substance listed
condition-info: 298.2 K; 101 kPa; Liquid; Taylor dispersion method; x1 = 0
endpoint-label: binary diffusion coefficient (m2/s)

compound	unit-abbreviation	binary diffusion coefficient
NCC(=O)O [2-aminoacetic acid] + O	m2/s	1.06e-09
CC(C)C[C@H](N)C(=O)O [L-leucine] + O	m2/s	7.35e-10
CC[C@H](C)[C@H](N)C(=O)O [2-amino-3-methylpentanoic acid] + O	m2/s	7.44e-10
CC(C)(C)C(N)C(=O)O (stereo not drawn) [DL-tert-leucine] + O	m2/s	7.29e-10
CCCCC(N)C(=O)O (stereo not given) [2-aminohexanoic acid] + O	m2/s	7.36e-10
CC[C@@H](C)[C@H](N)C(=O)O [allo-L-isoleucine] + O	m2/s	7.38e-10
CC(C)[C@H](N)C(=O)O [L-valine] + O	m2/s	7.77e-10
CCC[C@H](N)C(=O)O [(S)-2-aminopentanoic acid] + O	m2/s	7.75e-10
CCC(N)C(=O)O (stereo not drawn) [(.+-.)-α-aminobutyric acid] + O	m2/s	8.39e-10
C[C@H](N)C(=O)O [(S)-2-aminopropanoic acid] + O	m2/s	9.3e-10
